Where do the numbers come from? From PubChem BioAssay.

target: Neurogenic locus notch homolog protein 2 (Homo sapiens); experiment: Notch2 binders on small-molecule microarrays, primary screen, biochemical, small-molecule microarray, 635 nm fluorescence, stem cell growth factors (AID 1073); conditions: Notch2 binding, higher = more signal

MOLECULE	composite z-score
COC(=O)[C@@]1(Cc2ccc(F)cc2)[C@H]2c3cc(C(=O)N4CCCC4)n(Cc4ccc(S(C)(=O)=O)cc4)c3C[C@H]2CN1C(=O)c1ccccc1	1.55
CN1C(=O)C2C=CC(C(O)c3ccc([N+](=O)[O-])cc3)N(N3CCCCC3)C2C1=O (centres undefined)	1.6
C=CCOC(=O)[C@H]1[C@@H]2C(=O)O[C@@H](c3ccccc3)[C@@H](c3ccccc3)N2[C@@H](c2ccc(OCCOC(=O)[C@H]3C[C@H]4C(=O)N[C@@H](CCCCNC(C)=O)C(=O)N4[C@H]3c3ccc(O)cc3)cc2)[C@]12C(=O)Nc1ccc(I)cc12	0.791
C=CCN1C(=O)[C@]2(O[C@H](CCn3cc([C@H](O)c4ccccc4)nn3)[C@@H]([Si](C)(C)c3ccc(OC)cc3)[C@@H]2C)c2cc(N3CCC3=O)ccc21	-0.255
O=C(NCCN1CCOCC1)C1N=C(c2ccc(OCCCO)cc2)N(c2ccccc2)O1 (centres undefined)	1.48
CC(C)C(=C=CC[C@@H](O)c1ccc(OCCO)cc1)C[C@@H](O)c1ccccn1	0.344
NC(=O)NCC#Cc1ccc2c(c1)[C@]1(C(=O)N2)[C@H](C(=O)Nc2nc3ccccc3s2)[C@H]2C(=O)O[C@H](c3ccccc3)[C@H](c3ccccc3)N2[C@@H]1c1ccccc1OCCO	1.03
O=C(OCc1ccccc1)C1=CCC2c3[nH]c4ccccc4c3C(=O)C1N2S(=O)(=O)c1ccccc1[N+](=O)[O-] (centres undefined)	1.7
CC(C)N1C(=O)C[C@@](C(=O)NCC(F)(F)F)(c2ccc([N+](=O)[O-])cc2)[C@H]1c1ccc(CO)cc1	-0.545
CO[C@H]1O[C@H](CO)[C@@H](OC(=O)Nc2ccc(C(F)(F)F)cc2)[C@H](OC(=O)Nc2ccc3c(c2)OCO3)[C@@H]1OC(=O)Nc1ccc2c(c1)OCO2	1.51
CCS[C@H]1[C@@H](C(=O)O)[C@H](c2ccc(C)cc2)N(S(=O)(=O)c2ccc(C)cc2)[C@@H]1CC	1.36
CCOC(=O)[C@H]1C/C=C/C[C@H](C(=O)OCC)C(=O)O[C@H]2[C@@H](OC)O[C@H](CO)[C@@H](OC(=O)c3c(OC)cccc3OC)[C@@H]2OC1=O	0.297
C=C(CCCC)/C(=C/C[C@@H](OC(C)=O)c1ccc(OCCO)cc1)c1cnc2ccccc2c1	0.913
Oc1ccc2cc[n+](Cc3sc4ccccc4c3Cl)cc2c1	-0.308
